Compiled IC50 measurements on SYK kinase (Homo sapiens) taken from the literature.

// below: answered compounds
Lookup: Fetch value of IC50 on SYK kinase (Homo sapiens) for CC(C)n1cc(Nc2nc(C3CCC3)nc3cn[nH]c23)cn1 .
Found: < 10 nM

Lookup: Report IC50 from SYK kinase (Homo sapiens) testing of COc1cc(Nc2nc(-c3ccc4c(c3)C(=O)NCCO4)cn3ccnc23)ccc1N1CCOCC1
Found: 6 nM

Lookup: Specify the recorded IC50 for c1ccc2cc(Nc3nccc(-c4nccs4)n3)ccc2c1 , system: SYK kinase (Homo sapiens).
Found: > 2000 nM

Lookup: Fill in IC50 for CC(=O)N1C[C@H](O)C[C@@H]1c1nc(-c2ccc(N3CCCCC3)cc2)c2cnc3[nH]ccc3n12 tested with SYK kinase (Homo sapiens).
Found: < 10 nM

Lookup: Enter recorded IC50 with SYK kinase (Homo sapiens) for COc1cc(-c2cc3nccc(Nc4ccc5[nH]ccc5c4)c3o2)cc(OC)c1OC here.
Found: < 300 nM

New cases:
Lookup: Write down measured IC50 (SYK kinase (Homo sapiens)) for this compound. Cc1cc(Nc2nc3cncc(-c4cnn(C)c4)n3n2)ccc1NC(=O)C1CCC1
Found: 5000 to 10000 nM

Lookup: Consider the compound CC(=O)N1CCO[C@H](COc2nc(-c3ccc(C(C)(C)N)cc3)cc3nccnc23)C1 tested on SYK kinase (Homo sapiens); state its IC50.
Found: 449 nM

Lookup: Fill: IC50 (SYK kinase (Homo sapiens)) for this compound COc1ccc2nc(Nc3cnn(C4CCN(C)CC4)c3)c3n[nH]cc3c2c1
Found: 10 to 100 nM

Lookup: Retrieve IC50 on SYK kinase (Homo sapiens); query COCCCn1cc(Nc2nc3cccc(OC)c3c3cn[nH]c23)cn1
Found: 100 to 1000 nM

Lookup: Quote IC50 with test system SYK kinase (Homo sapiens) for COc1cc(Nc2nc(-c3ccc4c(c3)NCCO4)cn3ccnc23)ccc1N1CCN(C2COC2)CC1
Found: 4 nM

Lookup: State IC50 on SYK kinase (Homo sapiens). Entry: Cn1cc(-c2ccnc3cc(-c4ccc(OC(F)(F)F)cc4)oc23)cn1
Found: 300 to 3000 nM

Lookup: Please report the measured IC50 for c1cc(Nc2nccc(-c3nccs3)n2)cc(OCC2CCCCC2)c1 tested on SYK kinase (Homo sapiens).
Found: > 2000 nM

Lookup: Please report IC50 with SYK kinase (Homo sapiens) for item Cc1cc(C(=O)NC(C)(C)CO)cc(-c2cc3nccc(-c4ccccc4)c3o2)c1 .
Found: < 300 nM

Lookup: Lab note: SYK kinase (Homo sapiens) assay, enter IC50 for Cc1ccc(S(N)(=O)=O)cc1-c1cc2nccc(-c3cccc(C(=O)N[C@@H]4CCCC[C@@H]4N)c3)c2o1 here
Found: 300 to 3000 nM

Lookup: Look up and report measured IC50 (SYK kinase (Homo sapiens)) for the following compound: COc1ccnc(Nc2cccc(-c3cnc(N4CCNC(=O)C4C)o3)c2)n1 (stereo not drawn)
Found: ≤ 100 nM

Lookup: Report measured IC50 on SYK kinase (Homo sapiens); entry: CC(=O)N1CC(c2ccc(-c3cc4nccnc4c(OC[C@@H]4CN(C(N)=O)CCO4)n3)cc2)C1
Found: 72 nM

Lookup: # return IC50 for NC(=O)N1CCO[C@H](COc2nc(-c3ccc(C4(O)CCC4)cc3)cc3nccnc23)C1 , test system: SYK kinase (Homo sapiens)
Found: 35 nM

Lookup: State the measured IC50 (SYK kinase (Homo sapiens)) of COc1ccc(Nc2nc(-c3ccccc3NS(C)(=O)=O)nc3cn[nH]c23)cc1OC
Found: 100 to 1000 nM

Lookup: GET IC50 | system: SYK kinase (Homo sapiens) | item: COc1cc(-c2cc3nccc(-c4cnc(F)cc4C)c3o2)cc(OC)c1OC
Found: < 300 nM

Lookup: Provide measured IC50 on SYK kinase (Homo sapiens) for CN(c1nccn2nc(Nc3ccc4c(c3)NC(=O)C4(C)C)nc12)C1CCOCC1 please.
Found: 100 to 300 nM

Lookup: Tell me IC50 of CC1(C)C(=O)Nc2cc(Nc3nc4c(N5CCC6(CC5)CNC(=O)C6)nccn4n3)ccc21 when tested on SYK kinase (Homo sapiens).
Found: < 100 nM

Lookup: With SYK kinase (Homo sapiens) as the test system, provide measured IC50 for this compound: COc1cc(-c2cc3nccc(-c4cc(F)cc(C(=O)N[C@@H]5CCCC[C@@H]5N)c4)c3o2)cc(OC)c1OC
Found: 300 to 3000 nM

Lookup: Using SYK kinase (Homo sapiens) as the test system, report measured IC50 of COc1ccc2nc(Nc3cnn(CCF)c3)c3[nH]ncc3c2c1 .
Found: 100 to 1000 nM

Lookup: Answer briefly: IC50 recorded on SYK kinase (Homo sapiens) for CC12CCOC(=O)Nc3cccc(c3)Nc3ncc(F)c(n3)Nc3ccc(c(c3)NC1=O)O2 (stereo not drawn)
Found: < 300 nM

Lookup: // output IC50; input CS(=O)(=O)N1CCO[C@H](COc2nc(-c3ccc4ncccc4c3)cc3nccnc23)C1 ; system SYK kinase (Homo sapiens)
Found: 117 nM
